Value source: patent US9902736B2

system: PANC-1; experiment: Solid tumor cell growth inhibition, MTT, 72 h; format: cell-based; conditions: Homo sapiens
Observable: IC50 (µg/mL)

a. C=C1C(=O)[C@]23[C@H](OC(=O)/C=C/c4ccccc4)[C@H]1CC[C@H]2[C@@]12CO[C@@]3(O)[C@@H](O)[C@@H]1C(C)(C)CC[C@@H]2OC(C)=O
b. C=C1C(=O)[C@]23[C@H](OC(=O)C4CCC(NC(=O)c5ccccn5)CC4)[C@H]1CC[C@H]2[C@@]12CO[C@@]3(O)[C@@H](O)[C@@H]1C(C)(C)CCC2=O (some centres unmarked)
c. C=C1C(=O)[C@]23[C@H](OC(=O)c4ccc(OC)cc4)[C@H]1CC[C@H]2[C@@]12CO[C@@]3(O)[C@@H](O)[C@@H]1C(C)(C)CCC2=O
Qu. Ascending by IC50, please: list the compounds accordingly. Form field (ranking): labels in requested order.
Ans. c, a, b

1. C=C1C(=O)[C@]23[C@H](OC(=O)c4cccs4)[C@H]1CC[C@H]2[C@@]12CO[C@@]3(O)[C@@H](O)[C@@H]1C(C)(C)CCC2=O
2. C=C1C(=O)[C@]23[C@H](OC(=O)c4cccnc4)[C@H]1CC[C@H]2[C@@]12CO[C@@]3(O)[C@@H](O)[C@@H]1C(C)(C)CCC2=O
3. C=C1C(=O)[C@]23[C@H](OC(=O)C4CCN(S(=O)(=O)c5cccc([N+](=O)[O-])c5)CC4)[C@H]1CC[C@H]2[C@@]12CO[C@@]3(O)[C@@H](O)[C@@H]1C(C)(C)CCC2=O
Qu. I would appreciate it if you could sort these 3 compounds by IC50, starting from the smallest number. Form field (ranking): labels in requested order.
Ans. 1, 2, 3
(1: 1.63 µg/mL, 2: 2.99 µg/mL, 3: 4.98 µg/mL)

a. C=C1C(=O)[C@]23[C@H](OC(=O)c4ccc(OC)c(OC)c4)[C@H]1CC[C@H]2[C@@]12CO[C@@]3(O)[C@@H](O)[C@@H]1C(C)(C)CCC2=O
b. C=C1C(=O)[C@]23[C@H](OC(=O)c4ccncc4)[C@H]1CC[C@H]2[C@@]12CO[C@@]3(O)[C@@H](O)[C@@H]1C(C)(C)CCC2=O
c. C=C1C(=O)[C@]23[C@H](OC(=O)c4ccc(C)cc4)[C@H]1CC[C@H]2[C@@]12CO[C@@]3(O)[C@@H](O)[C@@H]1C(C)(C)CCC2=O
d. C=C1C(=O)[C@]23[C@H](O)[C@H]1CC[C@H]2[C@@]12CO[C@]3(O)[C@@H](O)[C@@H]1C(C)(C)CC[C@@H]2O
Qu. Falling order of IC50, please. Form field (ranking): labels in requested order.
Ans. d, b, a, c

I. C=C1C(=O)[C@]23[C@H](OC(=O)/C=C/c4ccccc4)[C@H]1CC[C@H]2[C@@]12CO[C@@]3(O)[C@@H](O)[C@@H]1C(C)(C)CCC2=O
II. C=C1C(=O)[C@]23[C@H](OC(=O)C4CCN(S(=O)(=O)CC)CC4)[C@H]1CC[C@H]2[C@@]12CO[C@@]3(O)[C@@H](O)[C@@H]1C(C)(C)CCC2=O
Qu. Between I and II , which one shows the larger IC50 value? Indicate your choice by writing its label.
Ans. II

a. C=C1C(=O)[C@]23[C@H](OC(=O)c4ccc(Cl)cc4)[C@H]1CC[C@H]2[C@@]12CO[C@@]3(O)[C@@H](O)[C@@H]1C(C)(C)CCC2=O
b. C=C1C(=O)[C@]23[C@H](OC(=O)C4CCN(S(=O)(=O)c5ccccc5)CC4)[C@H]1CC[C@H]2[C@@]12CO[C@@]3(O)[C@@H](O)[C@@H]1C(C)(C)CCC2=O
Qu. Looking at a and b , which one comes out lower in IC50 terms? Indicate your choice by writing its label.
Ans. a
(a: 1.86 µg/mL, b: 3.61 µg/mL)

I. C=C1C(=O)[C@]23[C@H](OC(=O)C4CC4)[C@H]1CC[C@H]2[C@@]12CO[C@@]3(O)[C@@H](O)[C@@H]1C(C)(C)CCC2=O
II. C=C1C(=O)[C@]23[C@H](OC(=O)C4CCN(S(=O)(=O)c5ccccc5[N+](=O)[O-])CC4)[C@H]1CC[C@H]2[C@@]12CO[C@@]3(O)[C@@H](O)[C@@H]1C(C)(C)CCC2=O
Qu. Between I and II , which one shows the larger IC50 value? Indicate your choice by writing its label.
Ans. II
(II: 4.99 µg/mL, I: 1.96 µg/mL)

* * *

system: RPMI 8226; experiment: Multiple myeloma cell growth inhibition, MTT, 72 h; type: cell-based; conditions: Homo sapiens
Observable: IC50 (µg/mL)

C=C1C(=O)[C@]23[C@H](OC(=O)c4ccc(OC)c(OC)c4)[C@H]1CC[C@H]2[C@@]12CO[C@@]3(O)[C@@H](O)[C@@H]1C(C)(C)CCC2=O: 0.3

1. C=C1C(=O)[C@]23[C@H](OC(=O)/C=C/c4ccccc4)[C@H]1CC[C@H]2[C@@]12CO[C@@]3(O)[C@@H](O)[C@@H]1C(C)(C)CCC2=O
2. C=C1C(=O)[C@]23[C@H](OC(=O)C4CC4)[C@H]1CC[C@H]2[C@@]12CO[C@@]3(O)[C@@H](O)[C@@H]1C(C)(C)CCC2=O
Qu. Looking at 1 and 2 , which one comes out lower in IC50 terms? Indicate your choice by writing its label.
Ans. 1

* * *

test system: Hep-2; assay: Solid tumor cell growth inhibition, MTT, 72 h; type: cell-based, human; conditions: Homo sapiens, HEp-2; 72 h, MTT
Observable: IC50 (µg/mL)

These recorded examples may help you get a feel for the data.
C=C1C(=O)[C@]23[C@H](OC(=O)c4ccccc4)[C@H]1CC[C@H]2[C@@]12CO[C@@]3(O)[C@@H](O)[C@@H]1C(C)(C)CCC2=O: 1.64
C=C1C(=O)[C@]23[C@H](OC(=O)c4ccccc4Br)[C@H]1CC[C@H]2[C@@]12CO[C@@]3(O)[C@@H](O)[C@@H]1C(C)(C)CCC2=O: 1.92
C=C1C(=O)[C@]23[C@H](OC(=O)c4ccc(C)cc4)[C@H]1CC[C@H]2[C@@]12CO[C@@]3(O)[C@@H](O)[C@@H]1C(C)(C)CCC2=O: 1.38
C=C1C(=O)[C@]23[C@H](OC(=O)c4cccnc4)[C@H]1CC[C@H]2[C@@]12CO[C@@]3(O)[C@@H](O)[C@@H]1C(C)(C)CCC2=O: 3.8
C=C1C(=O)[C@]23[C@H](OC(=O)C4CCC(NC(=O)c5ccccn5)CC4)[C@H]1CC[C@H]2[C@@]12CO[C@@]3(O)[C@@H](O)[C@@H]1C(C)(C)CCC2=O (stereo partly drawn): 3.13
C=C1C(=O)[C@]23[C@H](OC(=O)c4ccc(OC)c(OC)c4)[C@H]1CC[C@H]2[C@@]12CO[C@@]3(O)[C@@H](O)[C@@H]1C(C)(C)CCC2=O: 1.12
C=C1C(=O)[C@]23[C@H](OC(=O)C4CCN(S(=O)(=O)c5ccccc5[N+](=O)[O-])CC4)[C@H]1CC[C@H]2[C@@]12CO[C@@]3(O)[C@@H](O)[C@@H]1C(C)(C)CCC2=O: 3.97

P. C=C1C(=O)[C@]23[C@H](OC(=O)c4ccc(OC)cc4)[C@H]1CC[C@H]2[C@@]12CO[C@@]3(O)[C@@H](O)[C@@H]1C(C)(C)CCC2OC(C)=O (stereo partly drawn)
Q. C=C1C(=O)[C@]23[C@H](OC(=O)c4ccncc4)[C@H]1CC[C@H]2[C@@]12CO[C@@]3(O)[C@@H](O)[C@@H]1C(C)(C)CCC2=O
R. C=C1C(=O)[C@]23[C@H](OC(=O)c4ccc(Cl)cc4)[C@H]1CC[C@H]2[C@@]12CO[C@@]3(O)[C@@H](O)[C@@H]1C(C)(C)CC[C@@H]2OC(C)=O
S. C=C1C(=O)[C@]23[C@H](OC(=O)/C=C/c4ccccc4)[C@H]1CC[C@H]2[C@@]12CO[C@@]3(O)[C@@H](O)[C@@H]1C(C)(C)CCC2=O
Qu. I would appreciate it if you could sort these 4 compounds by IC50, starting from the smallest number. Form field (ranking): labels in requested order.
Ans. P, R, Q, S

* * *

System: RKO
Assay: Solid tumor cell growth inhibition, MTT, 72 h
Format: cell-based
Conditions: Homo sapiens
Experimental: 6000 well-growing human solid tumor cells were obtained and inoculated into wells of a 96-well cell culture plate. The culture medium was DMEM High Glucose cell culture medium containing 10% fetal bovine serum. The plate was placed in a carbon dioxide cell incubator (5% CO2) at 37° C. and incubated for 24 hours. […] Then the viable cell concentration was determined by MTT method.
Observable: IC50 (µg/mL)

These recorded examples may help you get a feel for the data.
C=C1C(=O)[C@]23[C@H](OC(=O)C4CCN(S(=O)(=O)c5ccccc5)CC4)[C@H]1CC[C@H]2[C@@]12CO[C@@]3(O)[C@@H](O)[C@@H]1C(C)(C)CCC2=O: 0.89
C=C1C(=O)[C@]23[C@H](OC(=O)C4CCN(S(=O)(=O)c5cccc([N+](=O)[O-])c5)CC4)[C@H]1CC[C@H]2[C@@]12CO[C@@]3(O)[C@@H](O)[C@@H]1C(C)(C)CCC2=O: 0.91
C=C1C(=O)[C@]23[C@H](OC(=O)C4CC4)[C@H]1CC[C@H]2[C@@]12CO[C@@]3(O)[C@@H](O)[C@@H]1C(C)(C)CCC2=O: 0.6
C=C1C(=O)[C@]23[C@H](OC(=O)c4cccs4)[C@H]1CC[C@H]2[C@@]12CO[C@@]3(O)[C@@H](O)[C@@H]1C(C)(C)CCC2=O: 0.43

I. C=C1C(=O)[C@]23[C@H](OC(=O)C4CCN(S(=O)(=O)c5ccccc5[N+](=O)[O-])CC4)[C@H]1CC[C@H]2[C@@]12CO[C@@]3(O)[C@@H](O)[C@@H]1C(C)(C)CCC2=O
II. C=C1C(=O)[C@]23[C@H](OC(=O)c4cccc(C)c4)[C@H]1CC[C@H]2[C@@]12CO[C@@]3(O)[C@@H](O)[C@@H]1C(C)(C)CCC2=O
Qu. Between I and II , which one shows the larger IC50 value? Indicate your choice by writing its label.
Ans. I
(I: 1.21 µg/mL, II: 0.47 µg/mL)

I. C=C1C(=O)[C@]23[C@H](OC(=O)c4ccncc4)[C@H]1CC[C@H]2[C@@]12CO[C@@]3(O)[C@@H](O)[C@@H]1C(C)(C)CCC2=O
II. C=C1C(=O)[C@]23[C@H](OC(=O)/C=C/c4ccccc4)[C@H]1CC[C@H]2[C@@]12CO[C@@]3(O)[C@@H](O)[C@@H]1C(C)(C)CC[C@@H]2OC(C)=O
III. C=C1C(=O)[C@]23[C@H](OC(=O)c4cccnc4)[C@H]1CC[C@H]2[C@@]12CO[C@@]3(O)[C@@H](O)[C@@H]1C(C)(C)CCC2=O
Qu. I would appreciate it if you could sort these 3 molecules by IC50, starting from the smallest number. Form field (ranking): labels in requested order.
Ans. II, III, I
(II: 0.38 µg/mL, III: 0.59 µg/mL, I: 1.01 µg/mL)

I. C=C1C(=O)[C@]23[C@H](OC(=O)c4ccc(C)cc4)[C@H]1CC[C@H]2[C@@]12CO[C@@]3(O)[C@@H](O)[C@@H]1C(C)(C)CCC2=O
II. C=C1C(=O)[C@]23[C@H](OC(=O)c4ccccc4)[C@H]1CC[C@H]2[C@@]12CO[C@@]3(O)[C@@H](O)[C@@H]1C(C)(C)CCC2=O
Qu. Between I and II , which one shows the larger IC50 value? Indicate your choice by writing its label.
Ans. II
(II: 0.46 µg/mL, I: 0.31 µg/mL)
